measuredOn: p38α (Homo sapiens, UniProt Q16539)
Construct: p38 MAP Kinases are recombinant human full-length proteins with an amino-terminal GST fusion; GST (N)
Sequence (Q16539 whole entry, the tested form may be a part): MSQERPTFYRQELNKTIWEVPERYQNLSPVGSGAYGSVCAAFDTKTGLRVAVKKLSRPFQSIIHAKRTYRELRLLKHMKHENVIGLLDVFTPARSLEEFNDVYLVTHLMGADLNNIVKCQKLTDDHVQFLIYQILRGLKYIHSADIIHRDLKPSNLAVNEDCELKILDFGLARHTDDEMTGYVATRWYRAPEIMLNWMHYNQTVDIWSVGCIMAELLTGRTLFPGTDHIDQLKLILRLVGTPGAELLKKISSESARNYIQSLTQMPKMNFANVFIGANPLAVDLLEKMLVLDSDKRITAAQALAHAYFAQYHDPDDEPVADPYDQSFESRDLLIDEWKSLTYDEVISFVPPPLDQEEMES
assaySummary: p38 MAP Kinase assay: inhibition of ATF2 phosphorylation, ELISA
conditionSummary: ATF2 phosphorylation; read-out: [ENZ] P38 ALPHA, IC50, ELISA
pIC50: −log10 of the molar value.
parameterMeasured: pIC50

1. CC(=O)N1CCN(c2nccc(Oc3ccc(NC(=O)c4cc(F)cc(N5CCOCC5)c4)c4ccccc34)n2)CC1 :: 8.03
2. CN(C)c1cccc(C(=O)Nc2ccc(OCCN3CCOCC3)c3ccccc23)c1 :: 4.53
3. COC(CNc1nccc(Oc2ccc(NC(=O)c3cc(F)cc(N4CCOCC4)c3)c3ccccc23)n1)OC :: 8.52
4. CS(=O)(=O)c1nccc(Oc2ccc(NC(=O)c3cc(F)cc(N4CCOCC4)c3)c3ccccc23)n1 :: 6.28
5. CC(C)(C)OC(=O)N1CCN(c2nccc(Oc3ccc(NC(=O)c4cc(F)cc(N5CCOCC5)c4)c4ccccc34)n2)CC1 :: 7.25
6. CCN(C)c1cc(C(=O)Nc2ccc(OCCN3CCOCC3)c3ccccc23)ccn1 :: 5.11
7. CN(C(=N)N)c1nccc(Oc2ccc(NC(=O)c3cc(F)cc(N4CCCCC4)c3)c3ccccc23)n1 :: 7.44
8. CN(C)[C@@H]1CCN(c2nccc(Oc3ccc(NC(=O)c4cc(F)cc(N5CCOCC5)c4)c4ccccc34)n2)C1 :: 7.65
9. O=C(Nc1ccc(NCCN2CCOCC2)c2ccccc12)c1cc(F)cc(N2CCOCC2)c1 :: 5.08
10. CCN1CCN(c2nccc(Oc3ccc(NC(=O)c4cc(F)cc(N5CCCCC5)c4)c4ccccc34)n2)CC1 :: 8.10
11. CCn1c(COc2ccc(NC(=O)c3cc(F)cc(N4CCC(C)CC4)c3)c3ccccc23)n[nH]c1=O :: 6.84

---

measuredOn: p38α (Homo sapiens, UniProt Q16539)
Construct: p38 MAP Kinases are recombinant human full-length proteins with an amino-terminal GST fusion; GST (N)
assaySummary: p38 MAP Kinase assay: inhibition of ATF2 phosphorylation, ELISA
conditionSummary: ATF2 phosphorylation; read-out: [ENZ] P38 ALPHA, IC50, ELISA
parameterMeasured: IC50 (nM)

1. CSc1nccc(Oc2ccc(NC(=O)c3cc(F)cc(N4CCCCC4)c3)c3ccccc23)n1 :: 56
2. CSc1nccc(Oc2ccc(NC(=O)c3cccc(-c4ccc(F)cc4C)c3)c3ccccc23)n1 :: 162
3. O=C(Nc1ccc(OCCc2cccnc2)c2ccccc12)c1cc(F)cc(N2CCOCC2)c1 :: 826
4. CSc1nccc(Oc2ccc(NC(=O)c3cccc(OC(C)(C)C)c3)c3ccccc23)n1 :: 74.5

---

measuredOn: p38α (Homo sapiens, UniProt Q16539)
Construct: p38 MAP Kinases are recombinant human full-length proteins with an amino-terminal GST fusion; GST (N)
assaySummary: p38 MAP Kinase assay: inhibition of ATF2 phosphorylation, ELISA
conditionSummary: ATF2 phosphorylation; read-out: [ENZ] P38 ALPHA, IC50, ELISA
pIC50: −log10 of the molar value.
// reported pIC50 per item
parameterMeasured: pIC50

1) O=C(Nc1ccc(Oc2ccnc(NCC3CC3)n2)c2ccccc12)c1cc(F)cc(N2CCOCC2)c1 :: 8.60
2) O=C(Nc1ccc(OCCCN2CCNCC2)c2ccccc12)c1cc(F)cc(N2CCCCC2)c1 :: 5.94
3) CC(C)(C)OC(=O)NC1CCN(c2nccc(Oc3ccc(NC(=O)c4cc(F)cc(N5CCCCC5)c4)c4ccccc34)n2)CC1 :: 7.04
4) O=C(Nc1ccc(OCCN2CCOCC2)c2ccccc12)c1cccc(-c2ccc(F)cc2F)c1 :: 6.13
